Below: compounds with IC50 recorded for UniProt O75164 in separate published works.
Target: UniProt O75164
Sequence (O75164 whole entry): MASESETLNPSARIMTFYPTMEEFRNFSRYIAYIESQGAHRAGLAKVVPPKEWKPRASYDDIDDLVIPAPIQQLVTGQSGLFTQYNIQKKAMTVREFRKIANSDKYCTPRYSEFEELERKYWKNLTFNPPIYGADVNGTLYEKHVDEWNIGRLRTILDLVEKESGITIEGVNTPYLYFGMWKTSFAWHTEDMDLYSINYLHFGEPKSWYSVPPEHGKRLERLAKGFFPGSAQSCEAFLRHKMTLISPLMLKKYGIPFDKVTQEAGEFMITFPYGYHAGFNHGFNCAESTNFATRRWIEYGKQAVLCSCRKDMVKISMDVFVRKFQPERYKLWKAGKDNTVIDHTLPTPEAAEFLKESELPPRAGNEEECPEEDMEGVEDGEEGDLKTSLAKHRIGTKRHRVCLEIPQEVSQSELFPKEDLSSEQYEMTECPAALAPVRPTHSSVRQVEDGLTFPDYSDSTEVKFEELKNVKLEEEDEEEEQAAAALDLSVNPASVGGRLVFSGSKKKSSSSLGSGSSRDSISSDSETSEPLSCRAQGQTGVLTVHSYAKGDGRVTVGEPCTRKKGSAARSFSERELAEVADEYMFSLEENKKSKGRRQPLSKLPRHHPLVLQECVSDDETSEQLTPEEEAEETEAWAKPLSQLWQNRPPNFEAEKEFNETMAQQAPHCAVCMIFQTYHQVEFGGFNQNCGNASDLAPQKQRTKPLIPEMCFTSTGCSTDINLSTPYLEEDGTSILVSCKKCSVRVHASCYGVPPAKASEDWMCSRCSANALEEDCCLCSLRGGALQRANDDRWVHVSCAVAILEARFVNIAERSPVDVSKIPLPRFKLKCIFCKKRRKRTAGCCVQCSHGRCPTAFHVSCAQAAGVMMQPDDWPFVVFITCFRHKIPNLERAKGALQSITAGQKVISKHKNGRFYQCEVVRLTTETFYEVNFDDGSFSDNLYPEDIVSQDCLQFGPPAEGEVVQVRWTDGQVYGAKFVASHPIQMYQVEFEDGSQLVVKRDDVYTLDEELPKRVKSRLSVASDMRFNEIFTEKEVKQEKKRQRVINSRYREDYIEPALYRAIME
measured-attribute: IC50 (µM)

Recorded results for 4 compounds are shown here.
Query O=C(O)C(=O)N[C@H](Cc1ccc(OCc2ccccc2F)cc1)C(=O)O yields IC50 of 10

Query O=c1[nH]c(Oc2cnn(C3CCCC3)c2)nc2cnccc12 yields IC50 of 0.794

Query CCC[C@]1(c2ccccc2)NC(=O)N(CC(=O)N(C)Cc2c(F)cccc2Cl)C1=O yields IC50 of 25

Query NCc1ccc(CNCCCCN(O)C(=O)/C=C/C(=O)O)cc1 yields IC50 of 2.4

1 = O=C(O)C(=O)N[C@H](Cc1ccc(OS(=O)(=O)c2ccc(F)cc2)cc1)C(=O)O
2 = O=C(O)CNC(=O)C(=O)O
# input Quick check, higher IC50 between 1 and 2 ? State the label of the item chosen.
# output 2
(2: 85 µM, 1: 20 µM)

###

Below: compounds with pIC50 recorded for Lysine-specific demethylase 4A (Homo sapiens) in separate published works.
Target: Lysine-specific demethylase 4A (Homo sapiens)
Sequence (O75164 whole entry): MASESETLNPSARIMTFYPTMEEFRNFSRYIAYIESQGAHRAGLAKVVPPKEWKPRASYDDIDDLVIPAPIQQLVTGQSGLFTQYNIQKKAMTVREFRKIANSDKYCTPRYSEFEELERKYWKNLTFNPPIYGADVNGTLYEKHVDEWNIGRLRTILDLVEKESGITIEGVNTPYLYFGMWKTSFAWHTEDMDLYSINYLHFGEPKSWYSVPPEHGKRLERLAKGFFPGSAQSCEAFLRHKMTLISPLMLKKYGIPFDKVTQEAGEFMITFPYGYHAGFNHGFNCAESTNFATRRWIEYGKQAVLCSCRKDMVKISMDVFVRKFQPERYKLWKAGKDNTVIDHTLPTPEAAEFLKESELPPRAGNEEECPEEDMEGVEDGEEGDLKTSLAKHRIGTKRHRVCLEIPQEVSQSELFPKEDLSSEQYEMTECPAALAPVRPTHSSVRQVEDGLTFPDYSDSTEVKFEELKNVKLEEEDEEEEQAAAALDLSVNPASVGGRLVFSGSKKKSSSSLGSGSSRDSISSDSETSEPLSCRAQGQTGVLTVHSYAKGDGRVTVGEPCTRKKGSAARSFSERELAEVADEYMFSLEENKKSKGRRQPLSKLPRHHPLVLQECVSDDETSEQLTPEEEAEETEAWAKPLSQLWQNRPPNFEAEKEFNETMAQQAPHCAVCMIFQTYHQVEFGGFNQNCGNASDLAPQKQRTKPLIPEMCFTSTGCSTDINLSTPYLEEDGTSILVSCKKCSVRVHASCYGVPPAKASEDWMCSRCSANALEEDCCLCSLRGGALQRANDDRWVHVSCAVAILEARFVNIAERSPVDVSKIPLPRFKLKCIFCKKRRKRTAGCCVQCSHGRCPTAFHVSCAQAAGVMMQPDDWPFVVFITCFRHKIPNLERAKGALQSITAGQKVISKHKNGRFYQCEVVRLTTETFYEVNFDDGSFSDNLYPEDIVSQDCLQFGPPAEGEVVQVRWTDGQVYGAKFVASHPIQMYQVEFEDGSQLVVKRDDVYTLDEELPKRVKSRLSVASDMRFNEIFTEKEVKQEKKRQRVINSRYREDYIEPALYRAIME
pIC50: −log10 of the molar value.
measured-attribute: pIC50

Recorded results for 9 compounds are shown here.
Query O=C(O)/C=C/C(=O)N(O)CCCCNCc1ccc(COC(=O)Nc2cccc3ccccc23)cc1 yields pIC50 of 5.37

Query CCCCCCCCCC(=O)N(O)CCC(=O)O yields pIC50 of 4.00

Query O=c1[nH]c(Oc2cnn(Cc3ccccc3)c2)nc2cnccc12 yields pIC50 of 6.20

Query CCOC(=O)CCNc1cc(N2CCc3ccccc3CC2)nc(-c2ccccn2)n1 yields pIC50 of 5.12

Query CC(C)CCCCCCCCC(=O)N(O)CCC(=O)O yields pIC50 of 4.04

Query O=c1[nH]c(Oc2ccc(Cl)c(O)c2)nc2cnccc12 yields pIC50 of 6.40

Query CC(C)(C)c1ccc(S(=O)(=O)Oc2ccc(C[C@@H](NC(=O)C(=O)O)C(=O)O)cc2)cc1 yields pIC50 of 4.89

Query O=C(O)CCN(O)C(=O)CCCCCCCCC1CCCCCC1 yields pIC50 of 4.00

Query Cc1cc(Cl)ccc1COc1ccnn1-c1cc(C(=O)O)ccn1 yields pIC50 of 7.00

P = NCc1ccc(CN(CCCCN(O)C(=O)/C=C/C(=O)O)C(=S)Nc2ccc(-c3c4ccc(=O)cc-4oc4cc(O)ccc34)c(C(=O)O)c2)cc1
Q = O=c1[nH]c(Oc2cnn(CC3CCCCC3)c2)nc2cnccc12
# input Quick check, higher pIC50 between P and Q ? State the label of the item chosen.
# output Q

###

Below: compounds with pIC50 recorded for Lysine-specific demethylase 4A (Homo sapiens) in separate published works.
Target: Lysine-specific demethylase 4A (Homo sapiens)
Sequence (O75164 whole entry): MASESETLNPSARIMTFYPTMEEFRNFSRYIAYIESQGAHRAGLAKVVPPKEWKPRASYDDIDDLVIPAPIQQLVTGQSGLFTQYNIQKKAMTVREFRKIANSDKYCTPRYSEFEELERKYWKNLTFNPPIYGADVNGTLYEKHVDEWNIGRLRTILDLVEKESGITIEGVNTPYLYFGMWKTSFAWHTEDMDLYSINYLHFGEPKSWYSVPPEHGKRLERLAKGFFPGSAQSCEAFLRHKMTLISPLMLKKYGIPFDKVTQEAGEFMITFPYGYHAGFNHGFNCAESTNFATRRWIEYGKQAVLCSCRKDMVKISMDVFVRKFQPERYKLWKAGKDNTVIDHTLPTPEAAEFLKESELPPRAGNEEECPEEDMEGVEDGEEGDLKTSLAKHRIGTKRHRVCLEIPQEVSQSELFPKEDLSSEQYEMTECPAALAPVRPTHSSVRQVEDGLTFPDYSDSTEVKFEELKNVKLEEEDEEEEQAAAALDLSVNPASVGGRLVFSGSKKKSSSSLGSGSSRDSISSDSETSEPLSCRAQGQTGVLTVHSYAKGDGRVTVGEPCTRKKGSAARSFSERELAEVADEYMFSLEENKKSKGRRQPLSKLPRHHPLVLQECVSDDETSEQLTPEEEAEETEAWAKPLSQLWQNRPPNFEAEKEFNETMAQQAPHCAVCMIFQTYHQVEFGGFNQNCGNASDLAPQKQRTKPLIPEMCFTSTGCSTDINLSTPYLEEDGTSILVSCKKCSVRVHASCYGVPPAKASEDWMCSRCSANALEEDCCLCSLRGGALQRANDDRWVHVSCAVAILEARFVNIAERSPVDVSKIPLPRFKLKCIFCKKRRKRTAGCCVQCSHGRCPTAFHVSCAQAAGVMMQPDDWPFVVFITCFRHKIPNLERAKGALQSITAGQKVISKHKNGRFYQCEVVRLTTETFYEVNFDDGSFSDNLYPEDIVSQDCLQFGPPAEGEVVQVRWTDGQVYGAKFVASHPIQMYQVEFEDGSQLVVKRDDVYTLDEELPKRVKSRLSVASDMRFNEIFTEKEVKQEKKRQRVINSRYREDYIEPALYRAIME
pIC50: −log10 of the molar value.

Query O=C(O)CCN(O)C(=O)CCCCCCCCC1CC1 yields pIC50 of < 3.92

Query O=C(O)CCN(O)C(=O)CCCCCCCCC1CCCC1 yields pIC50 of < 3.92

Query O=C(O)CCNc1cc(N2CCc3ccccc3CC2)nc(-c2ccccn2)n1 yields pIC50 of < 4.30

Query COC(=O)CCN(O)C(=O)CCCCCCCCC(C)C yields pIC50 of < 3.92

Query Cn1ccnc1CN1CCC2(CC1)NC(=O)N(c1ccc(-c3ccccc3)cc1)C2=O yields pIC50 of < 4.60

Query O=C(O)CCN(O)C(=O)CCCCCCCCC1CCCCC1 yields pIC50 of < 3.92

Okay, now this compound:
Query Cc1cccnc1CN1CCC2(CC1)NC(=O)N(c1ccc(-c3ccccc3)cc1)C2=O yields pIC50 of < 4.60
